Assay: Measurement of the approximate solubility at ambient temperature
Type: physicochemical
Details: organic solvent or mixture, thermodynamic from solid, chloroform, 23° C.
QUANTITY MEASURED: solubility

solubility for `Cc1cc(OC[P@@]2(=O)OCC[C@@H](c3cccc(Cl)c3)O2)cc(C)c1Cc1ccc(O)c(C(C)C)c1` ? > 388 mg/mL

* * *

Assay: Measurement of the approximate solubility at ambient temperature
Type: physicochemical
Settings: organic solvent or mixture, thermodynamic from solid, tert-butyl methyl ether (TBME), 23° C.
QUANTITY MEASURED: solubility

solubility for `Cc1cc(OC[P@@]2(=O)OCC[C@@H](c3cccc(Cl)c3)O2)cc(C)c1Cc1ccc(O)c(C(C)C)c1` ? > 200 mg/mL
